ddG of mutation (higher = less stable) for assorted variants
B1: Cold shock protein CspB, P41016 (parent)
chain: MQRGKVKWFNNEKGYGFIEVEGGSDVFVHFTAIQGEGFKTLEEGQEVSFEIVQGNRGPQAANVVKL

# Variants of: B1
# settings: Bacillus caldolyticus; pH 7; 75 °C; Thermal; CD; Na cacodylate/HCl 0.1 M; NaCl 0-2 M; reversible: Yes; structure 1C9O; whole UniProt chain shown
value_kind: ddG of mutation (higher = less stable) (kcal/mol)

# change, quantity_unit, numeric_value
measured = [
    ("E12K", "kcal/mol", 0.1),
    ("N55K", "kcal/mol", 0.29),
    ("E21K", "kcal/mol", 0.43),
    ("R56E", "kcal/mol", -0.53),
    ("E36K", "kcal/mol", 0.98),
    ("E50K", "kcal/mol", 0.76),
]
